Reported TGI values follow for various compounds
Test system: ACHN renal
protocol-summary: NCI tumour cell line growth inhibition, 48 h

compound	value-type	value
CCCCCCCCCCCCCCCCOCC(COP(=O)(O)OCC1OC(n2cc(CC)c(=O)[nH]c2=O)CC1O)OC(=O)CCCCCCCCCCCCCCC (stereo not given)	TGI	> 100 µM

Quick one: TGI for COc1nc(NC2OC(COC(C)=O)C(OC(C)=O)C(OC(C)=O)C2OC(C)=O)c(N=CC=Nc2c(NC3OC(COC(C)=O)C(OC(C)=O)C(OC(C)=O)C3OC(C)=O)nc(OC)[nH]c2=O)c(=O)[nH]1 (stereo not given) ? > 100 µM

How about C/C=C1/CC(C(=O)OC)N(C(=O)OCc2ccccc2)C1=S (stereo not given) ? > 100 µM

Then COc1ccc(C2COc3c(ccc(OC)c3OC)C2=O)cc1OC (stereo not given) ? > 100 µM

How about this compound: CSC(=S)CC(O)[C@@H]1CC2c3ccccc3C1c1ccccc12 (stereo not given in full) 29.5 µM

* * *

Recorded TGI for the following compounds
Test system: COLO 205 colon
protocol-summary: NCI tumour cell line growth inhibition, 48 h

Known TGI results, listed for orientation:
compound	TGI
COC1=C(C(c2cc(OC)c(OC)c(OC)c2)c2cc3c(cc2OC)OCO3)C(=O)OC1 (stereo not drawn)	53.2 µM
Cc1ccc(S(=O)(=O)n2cc(/C=C/C#N)c(-c3cn(S(=O)(=O)c4ccc(C)cc4)cc3-c3cn(S(=O)(=O)c4ccc(C)cc4)cc3/C=C/C#N)c2)cc1	> 100 µM

Sample C=CC1(C)CCC2C(=CCC3C2(C)CC(O)C(O)C3(C)COC2OC(CO)C(O)C(O)C2O)C1 (stereo not drawn) — what was its TGI? > 100 µM

Can you handle O=C1C(Cl)C(c2cccc([N+](=O)[O-])c2)N1n1cnc2ccccc2c1=O (stereo not drawn) next? > 100 µM

Now consider "COc1ccc(N2C(=O)c3cc([N+](=O)[O-])cnc3S2(=O)=O)cc1" . > 100 µM

Another: COc1nc(NC2OC(COC(C)=O)C(OC(C)=O)C(OC(C)=O)C2OC(C)=O)c(N=CC=Nc2c(NC3OC(COC(C)=O)C(OC(C)=O)C(OC(C)=O)C3OC(C)=O)nc(OC)[nH]c2=O)c(=O)[nH]1 (stereo not drawn) > 100 µM

Do the same for "COc1ccc2c(c1)[C@@H](NC(C)=O)CCc1cc(OC)c(OC)c(OC)c1-2" please 0.02 µM

Queued: "Cn1cc(-c2ccc3nc(-c4ccc(CC(=O)Nc5cc(C(C)(C)C)no5)cc4)cnc3c2)cn1" > 3 µM

Let us now turn to O=C(O)c1ccccc1CN1CCCC(C(=O)O)C1 (stereo not drawn) > 100 µM

Next compound up: "Fc1ccc(Nc2nc(Cl)c3[nH]cnc3n2)cc1Cl" > 100 µM

Next record, please: "CC(C)(CN1CCCCC1)C(=O)/C=C/c1ccccc1" 40.9 µM

* * *

System: TK-10 renal
protocol-summary: NCI tumour cell line growth inhibition, 48 h; in the data active = GI50 below about 0.43 µM; inactive = the rest
In this exercise, the only acceptable responses are active, inactive

> print(dat)
                            smiles.notation     label
1  CC[C@@]1(OP(=O)(O)O)C(=O)OCc2c1cc1n(c2=O)Cc2cc3ccccc3nc2-1  inactive
2  ClC1=C(Cl)C(Cl)(C2(Cl)C(Cl)=C(Cl)C(Cl)=C2Cl)C(Cl)=C1Cl    active
3                O=c1[nH]c2ccccc2n1C1CCNCC1  inactive
4  O=C(O)c1ccc(N(/C=C/C(=O)C(F)(F)F)Cc2ccc(Cl)cc2)cc1  inactive
5  COc1cccc2c1nc(C(F)F)n2-c1nc(-c2ccc(NS(=O)(=O)CCN(C)C)cc2)nc(N2CCOCC2)n1    active

How did this test come out for "CC1(C)N=C(N)N=C(N)N1c1ccc(OCCCNC(=O)Nc2ccc(S(=O)(=O)F)cc2)c(Cl)c1" ? inactive

Now consider "O=C1C=C(Nc2ccccc2)c2ccccc2C1=O" . inactive

Next record, please: "COc1cc(/C=C/C(=O)c2cccc(-n3cc(-c4ccccc4)[nH]c3=O)c2)cc(OC)c1OC" inactive

Another: "CCC(=C(c1ccc(OCCN2CCCCC2)cc1)c1ccc(OCCN2CCCCC2)cc1)c1ccc(Cl)cc1" inactive

* * *

System: HCT-116 colon
protocol-summary: NCI tumour cell line growth inhibition, 48 h
value-type: TGI

Here's what some known entries look like.
> print(dat)
                                   molecule   assay.system  value.type     value
1  Clc1ccc(/C=C/c2nc(-c3ccccc3)cn3c2nc2ccccc23)cc1Cl  HCT-116 colon         TGI  > 100 µM
2  Cn1ncnc1[C@@H]1c2n[nH]c(=O)c3cc(F)cc(c23)N[C@H]1c1ccc(F)cc1  HCT-116 colon         TGI  > 100 µM
3  N=c1sc2ccccc2n1CCS (tested in a mixture with another compound)  HCT-116 colon         TGI   30.5 µM

Form field: reported TGI of O=P1(NCCCl)OCCCN1CCCl (stereo not given) 440 µM

Next entry: CC(=O)OC(C)(C)C1CC[C@]2(C)/C=C/C(C)C[C@@H](O)/C=C(\C)CC(O)C12 (stereo not given in full) > 100 µM

O=C1C2C3C4C1C1C2[C@H](OCc2ccccc2)C3C1[C@H]4OCc1ccccc1 (stereo not given in full) , same question. > 100 µM

Next molecule: "O=C(O)CN1CCSc2ccccc2CN(CC(=O)O)CCSc2ccccc2C1" > 100 µM

Would you mind doing "Nc1ccc(/C=C/c2ccc3ncccc3c2)cc1" as well? > 100 µM

Follow-up item: NC(N)NCCCc1cn2c(n1)C1CCCN1C(=O)C2Cc1ccccc1 (stereo not given) > 100 µM

Then this molecule: "CN1CCN(c2cc3[nH]c4cc(O)cc(O)c4c(=O)c3cc2N)CC1" > 100 µM

* * *

System: UO-31 renal
protocol-summary: NCI tumour cell line growth inhibition, 48 h
value-type: TGI

Worked examples follow.
> print(dat)
                                   molecule  value.type      value
1         CC(=O)/C(=C\c1ccc(Cl)cc1)c1ccccc1         TGI  > 57.9 µM
2  CC(C)=CCC/C(C)=C/CC/C(C)=C/CSC[C@H](NC(=O)CCCCCN1CCN(C)CC1)C(=O)NC1CCCCCC1         TGI    3.22 µM
3  CC(=O)OCC1OC(n2c3c(c(-c4ccc(C)cc4)c(C#N)c2=S)C(=O)CC(C)(C)C3)C(OC(C)=O)C(OC(C)=O)C1OC(C)=O (centres undefined)         TGI   > 100 µM

The record that follows has no TGI shown yet.
I am curious: what TGI value has been reported for "C=C1c2nc3ccccc3n2C=C(c2ccc(OC)cc2)N1c1ccc(OCCN2CCCCC2)cc1" ? > 48.2 µM

* * *

Form field: TGI (one value per entry).
Test system: HOP-62 NSCLC
protocol-summary: NCI tumour cell line growth inhibition, 48 h

compound	TGI
O=C1C2C3CC4C5C3C1C5C1(SCCS1)C42 (stereo unspecified)	> 100 µM
CN1C(=O)C(c2c[nH]c3ccccc23)=C(c2c[nH]c3ccccc23)C1=O	> 25 µM
O=C1NN2CC(c3ccccc3)=NN=C2c2ccccc21	> 100 µM
CCC(=C(c1ccc(OCCN2CCCCC2)cc1)c1ccc(OCCN2CCCCC2)cc1)c1ccc(Cl)cc1	> 16.7 µM

Look up TGI with HOP-62 NSCLC for this compound: COc1nc(NC2OC(COC(C)=O)C(OC(C)=O)C(OC(C)=O)C2OC(C)=O)c(N=CC=Nc2c(NC3OC(COC(C)=O)C(OC(C)=O)C(OC(C)=O)C3OC(C)=O)nc(OC)[nH]c2=O)c(=O)[nH]1 (stereo unspecified) > 100 µM

// query: "CCNC1=C(NC(=O)c2ccc(F)cc2)C(=O)c2ccccc2C1=O" > 100 µM

COC(=O)C(=O)C(C#N)c1nc2ccccc2s1 (stereo unspecified) , same question. > 100 µM

How about this compound: "Cn1cc(C2=C(c3ccsc3)C(=O)NC2=O)c2ccccc21" > 25 µM

Next compound: "CCN1CCN(CCC(=O)Nc2cccc(-n3cc(-c4ccncc4)c(-c4ccc(Cl)c(OC)c4)n3)c2)CC1" 2.43 µM

Now give it for "CCOc1ccc(N(C)c2ccc(/C=C/C3=[N+](C)c4ccccc4C3(C)C)cc2)cc1" too. 1.91 µM

* * *

Quick reference: TGI of the listed items.
Tested on: PC-3 prostate
protocol-summary: NCI tumour cell line growth inhibition, 48 h

compound	assay-system	value
C=CC1(C)CCC2C(=CCC3C2(C)CC(O)C(O)C3(C)COC2OC(CO)C(O)C(O)C2O)C1 (centres undefined)	PC-3 prostate	> 100 µM
Clc1ccc(Cc2nc3ccccc3o2)cc1	PC-3 prostate	> 100 µM
CC(C#N)(c1ccccc1)N(CCc1ccccc1)C(=O)Oc1ccccc1 (centres undefined)	PC-3 prostate	> 100 µM
O=c1nc2n(-c3cccc(Cl)c3)c3ccc([N+](=O)[O-])cc3cc-2c(=O)[nH]1	PC-3 prostate	15.3 µM
CS(=O)(=O)OCCN(CCOS(C)(=O)=O)c1ccc(C=Nc2ccc(-c3csc(COc4ccccc4)n3)cc2)cc1	PC-3 prostate	28.2 µM

What value of measured TGI is listed for CC(C)=CC[C@@H]1CC2(CC=C(C)C)C(=O)C(OC3(C(=O)c4ccccc4)C(=O)C4(CC=C(C)C)C[C@@H](CC=C(C)C)C(C)(C)C(CC=C(C)C)(C4=O)C3=O)(C(=O)c3ccccc3)C(=O)C(CC=C(C)C)(C2=O)C1(C)C (some centres undefined) ? 4.36 µM

What do we get for OCC(O)COCn1cc(Cn2ncc3c(SCc4ccccc4)ncnc32)nn1 (centres undefined) ? > 100 µM

Next compound: Cn1cc(C2NC(=O)c3ccccc3N2)c2ccccc21 (centres undefined) 0.408 µM

Consider next the compound "C=CC(=O)NCCC(=O)OCn1cc(F)c(=O)[nH]c1=O" in the same way. > 100 µM
